test system: rodent lifetime carcinogenesis bioassay, tumor incidence TD50; test: carcinogenic potency in animals, long-term in vivo studies, CPDB compilation (AID 1745844); conditions: rat; strain Wistar; males; in drinking water; site: liver; lesion: hepatocellular carcinoma; dosed 45 weeks; study length 52 weeks
value-type: TD50 (mg/kg/day)
Value expressed in mg/kg/day; do not type the unit.

Exercise: Fetch value of TD50 on rodent lifetime carcinogenesis bioassay, tumor incidence TD50 for CC(O)CN(CC(C)O)N=O (stereo unspecified) .
Key: 2.4

* * *

tested on: rodent lifetime carcinogenesis bioassay, tumor incidence TD50; test: carcinogenic potency in animals, long-term in vivo studies, CPDB compilation (AID 1745844); conditions: mouse; strain B6C3F1; males; in feed; site: all sites; lesion: malignant lymphoma; dosed 103 weeks; study length 109 weeks
The source made the active and inactive calls. No rule for the calls is given here.
value-type: TD50

Exercise: Consider the compound NCCCCCCCCCCC(=O)O . State its measured TD50.
Key: 4970 mg/kg/day (inactive)

* * *

tested on: rodent lifetime carcinogenesis bioassay, tumor incidence TD50; assay: carcinogenic potency in animals, long-term in vivo studies, CPDB compilation (AID 1745844); conditions: hamster; strain Syrian Golden; males; in drinking water; site: liver; lesion: angiosarcoma; dosed 71 weeks; study length 71 weeks
value-type: TD50

Exercise: Consider the molecule CNNC . State its measured TD50.
Key: 0.211 mg/kg/day

* * *

tested on: rodent lifetime carcinogenesis bioassay, tumor incidence TD50; experiment: carcinogenic potency in animals, long-term in vivo studies, CPDB compilation (AID 1745844); settings: mouse; strain Swiss albino; females; in drinking water; site: lung; lesion: several types; types named in the paper; dosed 92 weeks; study length 92 weeks
value-type: TD50

| smiles | test-system | value-type | result |
| --- | --- | --- | --- |
| CN(C)NC(=O)CCC(=O)O | rodent lifetime carcinogenesis bioassay, tumor incidence TD50 | TD50 | 1370 mg/kg/day |
| CCCCN(N)C=O | rodent lifetime carcinogenesis bioassay, tumor incidence TD50 | TD50 | 19.4 mg/kg/day |

In the following, a different compound is considered.
Exercise: Consider the compound CN(N)C=O . State its measured TD50.
Key: 2.16 mg/kg/day

* * *

tested on: rodent lifetime carcinogenesis bioassay, tumor incidence TD50; experiment: carcinogenic potency in animals, long-term in vivo studies, CPDB compilation (AID 1745844); conditions: rat; strain Fischer 344; males; in drinking water; site: upper gastrointestinal tract; lesion: several types; types named in the paper; dosed 100 weeks; study length 115 weeks
value-type: TD50

Exercise: Consider the compound O=NN1CCCCCCC1 . State its measured TD50.
Key: 0.0292 mg/kg/day

* * *

tested on: rodent lifetime carcinogenesis bioassay, tumor incidence TD50; experiment: carcinogenic potency in animals, long-term in vivo studies, CPDB compilation (AID 1745844); conditions: rat; strain Fischer 344; females; in feed; site: urinary bladder; lesion: transitional-cell carcinoma; dosed 104 weeks; study length 104 weeks
value-type: TD50

Exercise: Fetch value of TD50 on rodent lifetime carcinogenesis bioassay, tumor incidence TD50 for Cc1ccccc1N .
Key: 185 mg/kg/day

* * *

test system: rodent lifetime carcinogenesis bioassay, tumor incidence TD50; test: carcinogenic potency in animals, long-term in vivo studies, CPDB compilation (AID 1745844); conditions: rat; strain Sprague-Dawley Spartan; females; inhaled; site: liver; lesion: Kupffer-cell sarcoma; dosed 104 weeks; study length 104 weeks
The source made the active and inactive calls. The rule behind the calls is not given here.
value-type: TD50

Exercise: Fetch value of TD50 on rodent lifetime carcinogenesis bioassay, tumor incidence TD50 for ClCCl .
Key: 9340 mg/kg/day (inactive)
